Where these numbers come from: patent US12084419B2

system.name: His6 tagged human recombinant FABP4 (Homo sapiens, UniProt P15090)
Construct: purchased Cayman Chemicals 10009549
Sequence (P15090 whole entry): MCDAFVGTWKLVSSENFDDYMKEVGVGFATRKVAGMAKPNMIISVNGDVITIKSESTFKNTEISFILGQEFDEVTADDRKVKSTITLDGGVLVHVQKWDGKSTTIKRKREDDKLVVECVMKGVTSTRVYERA
protocol.notes: FABP4 TR-FRET assay: displacement of BODIPY FL C12 fatty acid
condition.summary: 10 μM compound, triplicates, inhibition of BODIPY FL C12 binding
compounds and their reported inhibition at 10 µM
API: value field is a number in %; no unit string.

The following compounds have reported results that may help.
{"compound": "CCCCCCC1CCCc2c(n(Cc3cccc(C(=O)O)c3)c3c(C(=O)O)cccc23)C1 (stereo not shown)", "inhibition at 10 µM (%)": 89.2}
{"compound": "CCCCCCC1CCCc2c(n(Cc3c(C)noc3C)c3c(C(=O)O)cccc23)C1 (stereo not shown)", "inhibition at 10 µM (%)": 95.6}
{"compound": "CCCCCC1CCc2c(n(Cc3cccc(C#N)c3)c3c(C(=O)O)cccc23)C1 (stereo not shown)", "inhibition at 10 µM (%)": 77.1}
{"compound": "CCCCC1Cc2c(n(Cc3cccc(C(N)=O)c3)c3c(C(=O)O)cccc23)C1 (stereo not shown)", "inhibition at 10 µM (%)": 95.2}
{"compound": "CCCCC1CCCc2c(n(Cc3ccnc(OC)c3)c3c(C(=O)O)cccc23)C1 (stereo not shown)", "inhibition at 10 µM (%)": 88.2}

Task: Please look up its inhibition at 10 µM: CCCCCCC1CCCc2c(n(Cc3cccc4ncoc34)c3c(C(=O)O)cccc23)C1 (stereo not shown)
Output: 95.3

Task: Please look up its inhibition at 10 µM: CCCCC1CCCc2c(n(Cc3cccc(C(N)=O)c3)c3c(C(=O)NCC(=O)O)cccc23)C1 (stereo not shown)
Output: 90.2

Task: Please look up its inhibition at 10 µM: CCC1CCc2c1n(Cc1cccc(C#N)c1)c1c(C(=O)O)cccc21 (stereo not shown)
Output: 86.2

Task: Please look up its inhibition at 10 µM: CCCCCCCCC1CCCc2c(n(Cc3cccc(C#N)c3)c3c(C(=O)O)cccc23)C1 (stereo not shown)
Output: 93

Task: Please look up its inhibition at 10 µM: CCCC1CCc2c1n(Cc1cccc(C(N)=O)c1)c1c(C(=O)O)cccc21 (stereo not shown)
Output: 95.3

Task: Please look up its inhibition at 10 µM: CCCCCCC1CCCc2c(n(C(=O)c3cccc(C#N)c3)c3c(C(=O)O)cccc23)C1 (stereo not shown)
Output: 88.5

Task: Please look up its inhibition at 10 µM: CCCCCCC1CCc2c(n(Cc3ccccc3C)c3c(C(=O)O)cccc23)C1 (stereo not shown)
Output: 83.2

Task: Please look up its inhibition at 10 µM: CCCCCC1CCCc2c(n(Cc3cccc(C(N)=O)c3)c3c(C(=O)O)cccc23)C1 (stereo not shown)
Output: 93.3

Task: Please look up its inhibition at 10 µM: CCCCCCC1CCCc2c(n(Cc3cccc(OC)c3)c3c(C(=O)O)cccc23)C1 (stereo not shown)
Output: 93.6

Task: Please look up its inhibition at 10 µM: CCCCCCC1CCCc2c(n(Cc3cccc(C#N)c3)c3c(C(=O)O)cccc23)C1 (stereo not shown)
Output: 88.7

Task: Please look up its inhibition at 10 µM: CCCCC1CCc2c(n(Cc3cccc(C(N)=O)c3)c3c(C(=O)O)cccc23)C1 (stereo not shown)
Output: 95.5

---

system.name: His6 tagged human recombinant FABP4 (Homo sapiens)
Construct: purchased Cayman Chemicals 10009549
protocol.notes: FABP4 TR-FRET assay: displacement of BODIPY FL C12 fatty acid
condition.summary: 1 μM compound, triplicates, inhibition of BODIPY FL C12 binding
# binarize inhibition at 1 µM: threshold 90% inclusive, high side True, low side False

Previously resolved entries follow.
{"molecule": "CCCCCCCCC1CCCc2c(n(Cc3cccc(C(N)=O)c3)c3c(C(=O)O)cccc23)C1 (stereo not shown)", "class": "True"}
{"molecule": "CCCCCCC1CCCc2c(n(Cc3ccc(C)cc3)c3c(C(=O)O)cccc23)C1 (stereo not shown)", "class": "True"}
{"molecule": "CCCCCOC1CCCc2c1n(Cc1cccc(C(N)=O)c1)c1c(C(=O)O)cccc21 (stereo not shown)", "class": "False"}

Task: Tell me whether inhibition at 1 µM is at least 90% here: CCCCCOC1CCCc2c1n(Cc1cccc(C#N)c1)c1c(C(=O)O)cccc21 (stereo not shown)
Output: False

---

system.name: His6 tagged human recombinant FABP4 (Homo sapiens)
Construct: purchased Cayman Chemicals 10009549
protocol.notes: FABP4 TR-FRET assay: displacement of BODIPY FL C12 fatty acid
condition.summary: 10 μM compound, triplicates, inhibition of BODIPY FL C12 binding
molecules and their reported inhibition at 10 µM
API: value field is a number in %; no unit string.

The following molecules have reported results that may help.
{"molecule": "CCCC1CCCc2c(n(Cc3cccc(C(N)=O)c3)c3c(C(=O)O)cccc23)C1 (stereo not shown)", "unit.of.measure": "%", "recorded.value": 91.4}
{"molecule": "CCCCCCC1CCCc2c(n(Cc3ccc(C)cc3)c3c(C(=O)O)cccc23)C1 (stereo not shown)", "unit.of.measure": "%", "recorded.value": 91.7}
{"molecule": "CCCCCCC1CCc2c(n(Cc3cccc(C(N)=O)c3)c3c(C(=O)O)cccc23)C1 (stereo not shown)", "unit.of.measure": "%", "recorded.value": 90.5}
{"molecule": "CCCCCCC1CCc2c(n(Cc3ccc(C)cc3)c3c(C(=O)O)cccc23)C1 (stereo not shown)", "unit.of.measure": "%", "recorded.value": 88.5}

Task: Please look up its inhibition at 10 µM: CCCCC1CCCc2c(n(Cc3cccc(C)c3)c3c(C(=O)O)cccc23)C1 (stereo not shown)
Output: 91

Task: Please look up its inhibition at 10 µM: CCCCC1CCCc2c(n(Cc3ccc(C)cc3)c3c(C(=O)O)cccc23)C1 (stereo not shown)
Output: 92.4

Task: Please look up its inhibition at 10 µM: CCCCC1CCCCc2c1c1cccc(C(=O)O)c1n2Cc1cccc(C(N)=O)c1 (stereo not shown)
Output: 87.9

---

molecules and their reported inhibition at 10 µM
system.name: His6 tagged human recombinant FABP4 (Homo sapiens, UniProt P15090)
Construct: purchased Cayman Chemicals 10009549
protocol.notes: FABP4 TR-FRET assay: displacement of BODIPY FL C12 fatty acid
condition.summary: 10 μM compound, triplicates, inhibition of BODIPY FL C12 binding
Please state the number and follow it with the unit.

The following molecules have reported results that may help.
{"molecule": "CCCCC1CCCc2c(n(Cc3cccc(F)c3)c3c(C(=O)O)cccc23)C1 (stereo not drawn)", "recorded.value": "90.6%"}
{"molecule": "CCCC1CCc2c(n(Cc3cccc(C(N)=O)c3)c3c(C(=O)O)cccc23)C1 (stereo not drawn)", "recorded.value": "88%"}

Let us move to another entry and its inhibition at 10 µM.
Task: For His6 tagged human recombinant FABP4 (Homo sapiens, UniProt P15090), provide inhibition at 10 µM of CCCCCCC1CCCc2c(n(Cc3cccc(F)n3)c3c(C(=O)O)cccc23)C1 (stereo not drawn) please.
Output: 91.8%

---

system.name: His6 tagged human recombinant FABP4 (Homo sapiens)
Construct: purchased Cayman Chemicals 10009549
protocol.notes: FABP4 TR-FRET assay: displacement of BODIPY FL C12 fatty acid
condition.summary: 1 μM compound, triplicates, inhibition of BODIPY FL C12 binding
molecules and their reported inhibition at 1 µM
Please state the number and follow it with the unit.

The following molecules have reported results that may help.
{"molecule": "CCCCCCC1CCCc2c(n(Cc3ccc4ncoc4c3)c3c(C(=O)O)cccc23)C1 (stereo not drawn)", "inhibition at 1 µM": "101%"}
{"molecule": "CCCCCCC1CCCc2c(n(Cc3cccc(Cl)c3)c3c(C(=O)O)cccc23)C1 (stereo not drawn)", "inhibition at 1 µM": "103%"}
{"molecule": "CCCCCCC1CCCc2c(n(C(=O)c3cccc(C#N)c3)c3c(C(=O)O)cccc23)C1 (stereo not drawn)", "inhibition at 1 µM": "87.1%"}
{"molecule": "CCC1CCCc2c1n(Cc1cccc(C#N)c1)c1c(C(=O)O)cccc21 (stereo not drawn)", "inhibition at 1 µM": "44.2%"}
{"molecule": "CCCCC1CCCc2c(n(Cc3cccc(C#N)c3)c3c(C(=O)O)cccc23)C1 (stereo not drawn)", "inhibition at 1 µM": "73.5%"}
{"molecule": "CCCCCCC1CCCc2c(n(Cc3ccc(F)cc3)c3c(C(=O)O)cccc23)C1 (stereo not drawn)", "inhibition at 1 µM": "74.4%"}

Task: Please look up its inhibition at 1 µM: CCCCCCC1CCc2c(n(Cc3ccccc3C(N)=O)c3c(C(=O)O)cccc23)C1 (stereo not drawn)
Output: 31.1%

Task: Please look up its inhibition at 1 µM: CCCCC1CCCc2c(n(Cc3cccc(C(N)=O)c3)c3c(C(=O)NCCO)cccc23)C1 (stereo not drawn)
Output: 10.2%

Task: Please look up its inhibition at 1 µM: CCCCC1CCCc2c(n(Cc3ccccc3C(N)=O)c3c(C(=O)O)cccc23)C1 (stereo not drawn)
Output: 71.3%

Task: Please look up its inhibition at 1 µM: CCCCC1CCCc2c(n(Cc3cccc(C)c3)c3c(C(=O)O)cccc23)C1 (stereo not drawn)
Output: 94.8%

Task: Please look up its inhibition at 1 µM: CCCCCC1CCc2c(c3cccc(C(=O)O)c3n2Cc2cccc(C(N)=O)c2)C1 (stereo not drawn)
Output: 90.9%

Task: Please look up its inhibition at 1 µM: CCCCCC1Cc2c(n(Cc3cccc(C(N)=O)c3)c3c(C(=O)O)cccc23)C1 (stereo not drawn)
Output: 86.9%
